- target-under-test: c-erbB-4 (baculovirus expressed recombinant intracellular domain) (Homo sapiens, UniProt Q15303)
- Construct: baculovirus expressed, recombinant constructs of the intracellular domains of c-erbB-2 and c-erbB-4 that are constitutively active
- Sequence (Q15303 676-1308 limits assumed): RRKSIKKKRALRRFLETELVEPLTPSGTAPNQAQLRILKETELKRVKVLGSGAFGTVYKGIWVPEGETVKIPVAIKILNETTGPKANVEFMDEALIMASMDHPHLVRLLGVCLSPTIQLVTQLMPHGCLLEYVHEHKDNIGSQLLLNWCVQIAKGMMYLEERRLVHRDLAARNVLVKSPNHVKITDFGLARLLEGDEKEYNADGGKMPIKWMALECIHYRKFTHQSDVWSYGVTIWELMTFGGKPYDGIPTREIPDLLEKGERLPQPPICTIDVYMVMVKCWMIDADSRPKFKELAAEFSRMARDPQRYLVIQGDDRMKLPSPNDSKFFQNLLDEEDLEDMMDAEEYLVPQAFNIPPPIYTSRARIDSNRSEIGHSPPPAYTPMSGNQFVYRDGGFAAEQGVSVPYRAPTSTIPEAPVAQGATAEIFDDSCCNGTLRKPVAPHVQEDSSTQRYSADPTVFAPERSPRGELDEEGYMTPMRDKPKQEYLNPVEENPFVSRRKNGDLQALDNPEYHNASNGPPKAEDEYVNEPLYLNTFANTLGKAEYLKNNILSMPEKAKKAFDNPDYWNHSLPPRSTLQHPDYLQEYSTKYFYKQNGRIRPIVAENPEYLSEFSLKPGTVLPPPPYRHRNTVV
- protocol-notes: Substrate phosphorylation assay, c-erbB-4
- measurement-conditions: ATP and peptide at Km, 30 min, room temperature
- Description: The substrate phosphorylation assays use baculovirus expressed, recombinant constructs of the intracellular domains of c-erbB-2 and c-erbB-4 that are constitutively active and EGFr isolated from solubilised A431 cell membranes. […] The plate is washed and level of phosphotyrosine on the peptide is determined using a Europium-labelled antiphosphotyrosine antibody and quantified with a time-resolved fluorescence technique.
Structures can show the parent of a compound that is named as a salt.
Binary call on IC50 with cut-off 100 nM: strictly below means yes, and equality or higher means no.

Solved cases below.
State whether 100 nM exceeds IC50 recorded for Cc1nnc(-c2cc3c(Nc4ccc5c(cnn5Cc5cccc(F)c5)c4)ncnc3cn2)o1 [Example 30, Hydrochloride] .
no

State whether 100 nM exceeds IC50 recorded for CN(C)c1cc2c(Nc3ccc4c(cnn4Cc4cccnc4)c3)ncnc2cn1 [Example 13, Hydrochloride] .
no

State whether 100 nM exceeds IC50 recorded for CC(C)NC(=O)CN1CCN(c2cc3c(Nc4ccc5c(cnn5Cc5ccccc5)c4)ncnc3cn2)CC1 [Example 27] .
no

State whether 100 nM exceeds IC50 recorded for CN(C)c1cc2c(Nc3ccc4c(cnn4Cc4ccccn4)c3)ncnc2cn1 [Example 12, Hydrochloride] .
yes

State whether 100 nM exceeds IC50 recorded for CN(C)c1cc2c(Nc3ccc4c(ccn4Cc4ccccc4)c3)ncnc2cn1 [Example 6] .
no

State whether 100 nM exceeds IC50 recorded for CN(C)c1cc2c(Nc3ccc4c(cnn4Cc4cccc(F)c4)c3)ncnc2cn1 [Example 16, Hydrochloride] .
yes

State whether 100 nM exceeds IC50 recorded for NC(=O)[C@@H]1CCCN1Cc1ccc(-c2cc3c(Nc4ccc5c(cnn5Cc5ccccc5)c4)ncnc3cn2)o1 [Example 10, Hydrochloride] .
yes

State whether 100 nM exceeds IC50 recorded for CS(=O)(=O)CCNCc1ccc(-c2cc3c(Nc4ccc5c(cnn5Cc5ccccc5)c4)ncnc3cn2)o1 [Example 34, Hydrochloride] .
no

State whether 100 nM exceeds IC50 recorded for c1ccc(Cn2ncc3cc(Nc4ncnc5cnc(N6CCCCC6)cc45)ccc32)cc1 [Example 25] .
no

State whether 100 nM exceeds IC50 recorded for CN(CCO)c1cc2c(Nc3ccc4c(cnn4Cc4ccccc4)c3)ncnc2cn1 [Example 3] .
yes

# input for lookup
State whether 100 nM exceeds IC50 recorded for c1ccc(Cn2ncc3cc(Nc4ncnc5cnc(N6CCCC6)cc45)ccc32)cc1 [Example 24] .
no
